# Test system: MDA-MB-468 breast
# protocol: NCI-60 one-dose screen, 48 h (100 = growth as untreated, 0 = no growth, -100 = all killed)
# assay-setup: 10 µM unless noted
Compounds without any hit were thinned out: in the full panel of roughly 83,000, 20% have a hit.
Values of growth strictly less than 40% map to yes, and values of at least 40% map to no.

c1cc(OCCN2CCCC2)ccc1CNc1ccc2nc(CCC3CCCCC3)[nH]c2c1
no
Brc1ccsc1Br
no
O=C(Nc1ccc(-n2cc(-c3ccncc3)c(-c3ccc(Cl)c(O)c3)n2)cc1)N1CCOCC1
no
CC(C)(C)c1ccc(O)c(-c2ccccc2)c1
no
NC(=S)N/N=C/c1ccc(N)cc1
no
O=C(O)c1ccc(NC(=O)c2ccc(-c3cccc([N+](=O)[O-])c3)o2)cc1
no
COc1ccc2c(=O)cc(C(Cl)(Cl)Cl)oc2c1
yes
Nc1no[n+]([O-])c1-c1nnc2c(n1)-c1ccccc1C2=O
no
Nc1cccc(Cl)c1N
yes
Cc1nc2ccc(Nc3nc(Cl)nc(N4CCOCC4)n3)cc2n1Cc1ccccc1
no
O=C(N/N=C/c1ccccc1O)c1ccccc1Nc1ccnc(C(F)(F)F)c1
yes
NC(CSC(c1ccccc1)(c1ccccc1)c1ccc(Cl)cc1)C(=O)O (stereo not drawn)
yes
CS(=O)(=O)c1nccc(-c2c(-c3ccc(F)c(OCc4ccccc4)c3)nc3sccn23)n1
yes
Fc1ccc2c(c1)c(-c1nc(-c3c[nH]c4ncccc34)cs1)cn2CCCN1CCCCC1
no
Ic1cccs1
no
O=C1/C(=C/c2ccccc2[N+](=O)[O-])Oc2ccc(O)c(O)c21
yes
COc1cnc2c(c1)C(=O)c1c-2n(CCCBr)c(=O)c2cc([N+](=O)[O-])ccc12
yes
CNC(=O)c1cnc(C)nc1-c1cc(C(C)(C)C)c(O)c(C(C)(C)C)c1
no
CC(C)NC(=O)N/C=C(\C#N)C(N)=O
no
C[C@H]1[C@H]2[C@H]3CC[C@@H]4[C@@]5(C)CC[C@H](O)C(C)(C)[C@@H]5CC[C@@]4(C)[C@]3(C)CC[C@]23CO[C@]1(C)[C@@H](C(=O)/C=C\c1cccnc1)C3
yes
CCN(CC)CCN1CC(=O)Nc2cc(Cl)ccc21
no
COC(=O)/C=C1\SC(=Nc2cccc(Cl)c2)N(CCc2c[nH]c3ccccc23)C1=O
no
CSc1nc2sc3cc(Cl)ccc3n2c(=N)c1C#N
yes
Cc1ccc(OCCOCCOCCOCCOc2ccc(C)n(O)c2=S)c(=S)n1O
yes
CCN1C(=O)N(CC)C2Nn3c(s/c(=C\c4ccc([N+](=O)[O-])cc4)c3=O)=NC21 (stereo not drawn)
yes
CN1CCN(c2ccc3cc(-c4nc5ccccc5[nH]4)c(=O)oc3c2)CC1
no
CN(C)C(=O)Oc1cccc([N+](C)(C)C)c1
no
CCOC(=O)c1ccc(NC(=O)Nc2nccs2)cc1
yes
O=C(NS(=O)(=O)c1ccccc1)n1cc(-c2ccncc2)c(-c2cc(O)cc(Cl)c2)n1
no
CCC(c1ccccc1)C(CC)c1ccc(O)c(O)c1 (stereo not drawn)
no
COc1cc(/C=C/C(=O)c2c(C)nc3ccccc3c2/C=C/c2ccccc2)cc(OC)c1OC
yes
CN1CCN(c2ccc(NC3=C(Cl)C(=O)c4ncccc4C3=O)cc2C(F)(F)F)CC1
yes
O=C1OC(c2ccccc2)C(O)=C1c1ccccc1 (stereo not drawn)
no
NS(=O)(=O)c1ccc(-n2nc(-c3ccc(Cl)cc3)c3ccccc3c2=O)cc1
no
O=C(O)c1cn(C2CC2)c2cc(N3CCN(C(=O)N(c4ccccc4)c4nc(-c5ccccc5)cs4)CC3)c(F)cc2c1=O
yes
CC(C)CCSc1nc(Nc2ccccc2)c(C#N)c(-c2ccc(F)cc2)n1
no
CS(=O)(=O)c1ccc(-c2nn(-c3ccccc3)cc2/C=N/NC(=O)c2nc(N)n[nH]2)cc1
no
Nc1c(C(=O)Nc2ccccc2Cl)sc2nc3c(cc12)CCCCCC3
yes
CCc1ccc(Nc2cc(C)c3ccc(O)cc3n2)cc1
yes
O=C(CCc1nnc2sc(-c3ccc(Cl)cc3Cl)nn12)c1nc2ncccc2[nH]1
yes
COc1cc(/C=C2\CCC/C(=C\c3ccc(OCC4CO4)c(OC)c3)C2=O)ccc1OCC1CO1 (stereo not drawn)
yes
CCn1cc(CNc2ccc(C(=O)Nc3ccc4ccccc4c3)cc2)c(C)n1
yes
CCN(CC)C(=O)CCCCCn1c2ccccc2c2c3c(c4c5ccccc5[nH]c4c21)C(=O)N(O)C3=O
no

---

# Tested on: MDA-MB-468 breast
# protocol: NCI-60 one-dose screen, 48 h (100 = growth as untreated, 0 = no growth, -100 = all killed)
# assay-setup: 10 µM unless noted
Compounds without any hit were thinned out: in the full panel of roughly 83,000, 20% have a hit.
measurement-kind: growth (%)

CC(=O)O[C@H]1CC[C@]2(C)C3=C(C(=O)C[C@H]2C1(C)C)[C@]1(C)CC[C@H]([C@H](C)CCC(=O)O)[C@@]1(C)CC3=O
113
Fc1ccc(CNc2c3ccccc3nc3ccccc23)cc1F
-10.7
CC12CCC3C(CCC4CC(=O)/C(=C\O)CC43C)C1CCC(=O)O2 (stereo not given)
108
CCCC(C(=O)OCC)C(C)OC(=O)OCC (stereo not given)
101
O=c1oc2cc(OS(=O)(=O)c3ccccc3)ccc2c2c1CCCCC2
44.3
COC(=O)[C@]12CC[C@@H](C(/C=C/c3cccnc3)=N/O)[C@@H]1[C@H]1CC[C@@H]3[C@@]4(C)CC(=C/c5cccnc5)/C(=N/O)C(C)(C)[C@@H]4CC[C@@]3(C)[C@]1(C)CC2
13.1
Cc1ncn(-c2ccc(/C=N/Nc3ccnc4cc(Cl)ccc34)cc2)c1C
-21.4
Cn1c(/C=C(\C#N)c2cccc(C(F)(F)F)c2)nc2c(N3CCOCC3)nc(Cl)nc21
-40.3
CCCN1[C@@H]2CC[C@H]1/C(=C\c1ccc(OC)c(OC)c1)C(=O)/C2=C/c1ccc(OC)c(OC)c1
17.7
O=C(/C=C/c1c[nH]c2ccccc12)c1cc2ccccc2o1
121
CCOC(=O)c1nn(C2CCCCO2)c2ccc(NC(=O)CSc3nc4ccccc4c(=O)[nH]3)cc12 (stereo not given)
95.7
C=CCn1c(C)nc2cc(Nc3nc(Cl)nc4ccccc34)ccc21
83.7
COc1ccc2nc(-c3ccccc3)cc(C(C)=O)c2c1
68
COc1cc(-c2nc3ccccc3[nH]2)ccc1OCC(=O)N=Nc1c(O)[nH]c2ccccc12
-55.4
C=CCN1C(=O)c2cccc3c(N4CCOCC4)ccc(c23)C1=O
-40
O=C(NCCO)Nc1ccc(-c2nc(N3CCOCC3)c3cccn3n2)cc1
-24.2
COc1ccc(-c2cc(-c3ccc(OC)cc3)nc(NCCCNc3ccnc4cc(Cl)ccc34)n2)cc1
74.8
Fc1ccc(-c2cc3nc(C(Cl)Cl)nc(-c4ccccc4)n3n2)cc1
-59.1
COC(=O)c1[nH]c(=O)c(C#N)c(C(=O)OC)c1C(=O)c1ccccc1
102
S=C(N/N=C/c1ccccn1)Nc1ccccn1
-1.71

---

# System: MDA-MB-468 breast
# protocol: NCI-60 one-dose screen, 48 h (100 = growth as untreated, 0 = no growth, -100 = all killed)
# assay-setup: 10 µM unless noted
This is part of a sample that, as a whole, favours compounds with a hit. Of some 83,000 tested, about 20% had one in any assay.
Values of growth strictly less than 50% map to Yes, and values of at least 50% map to No.

C[C@H](CCC(=O)NCc1ccc(C(=O)Nc2ccccc2N)cc1)[C@H]1CC[C@H]2[C@@H]3[C@@H](O)C[C@@H]4C[C@H](O)CC[C@]4(C)[C@H]3CC[C@]12C
No
CCC1C[N+]2=C(c3cc(OC)c(OC)cc3CC2)c2c1cc1n2CCc2cc(OC)c(OC)cc2-1 (stereo not given)
Yes
CCOc1ccc2c(c1)/C(=C\C=C\C1CC(C)C3CC(OCC)CCC3N1CC)CC(C)N2CC (stereo not given)
Yes
CCCCc1ccc(C(N)=O)nc1
No
O=C1/C(=C/c2ccc(O)cc2O)N=C2SCCCN12
No
COc1ccc(/C=C/C(=O)N2CCC(O)CC2)cc1OC1CCCC1
No
Cc1cccc(C)c1NC(=O)c1sc2nc3c(cc2c1N)C(=O)CCC3
Yes
CC[C@H](C)C(=O)O[C@H]1CCC=C2C=C[C@H](C)[C@H](CC[C@@H]3CC=CC(=O)O3)[C@H]21
No
Nc1ccccc1SC(CC(=O)c1ccccc1)c1c(Cl)cccc1Cl (stereo not given)
No
Oc1ccccc1C=Nc1ccccc1N=Cc1ccccc1O.[Cu+2]
Yes
O=C1Nc2ccccc2/C1=C\c1nc(-c2ccccc2F)n2ccccc12
Yes
CC(=C(c1ccc(OCCN2CCCCC2)cc1)c1ccc(OCCN2CCCCC2)cc1)c1ccc(Cl)cc1
Yes
COC(=O)/C=C1/SC(=Nc2ccc(F)cc2)N(CCc2c[nH]c3ccc(O)cc23)C1=O
Yes
CCC(c1ccc(OC)cc1)C(CC)c1ccc(OCC[N+](C)(C)C)cc1 (stereo not given)
Yes
COc1cnc2c(c1)C(=O)c1c-2n(CCCN2CCN(C)CC2)c(=O)c2cc(Cl)ccc12
No
Nc1n[nH]c2cccc(C#Cc3cccc(C(=O)Nc4cc(CN5CCOCC5)cc(C(F)(F)F)c4)c3)c12
No
COc1cc2ncnc(Nc3ccc(C(=O)/C=C/c4ccc(C(F)(F)F)cc4F)cc3)c2cc1OC
No
COCCNC(=O)Cc1cc(-c2ccc(Cl)cc2)n(-c2ccccc2)c1C
No
CC(C)n1nc(-c2ccc3oc(N)nc3c2)c2c(N)ncnc21
Yes
O=c1c2cc(F)ccc2sc2c(NCCCN3CCCC3)nc3ccccc3c12
Yes
